Listed here: items and their measured pIC50.
Molecular target: human MetAP2 enzyme (Homo sapiens, UniProt P50579)
Sequence (P50579 whole entry): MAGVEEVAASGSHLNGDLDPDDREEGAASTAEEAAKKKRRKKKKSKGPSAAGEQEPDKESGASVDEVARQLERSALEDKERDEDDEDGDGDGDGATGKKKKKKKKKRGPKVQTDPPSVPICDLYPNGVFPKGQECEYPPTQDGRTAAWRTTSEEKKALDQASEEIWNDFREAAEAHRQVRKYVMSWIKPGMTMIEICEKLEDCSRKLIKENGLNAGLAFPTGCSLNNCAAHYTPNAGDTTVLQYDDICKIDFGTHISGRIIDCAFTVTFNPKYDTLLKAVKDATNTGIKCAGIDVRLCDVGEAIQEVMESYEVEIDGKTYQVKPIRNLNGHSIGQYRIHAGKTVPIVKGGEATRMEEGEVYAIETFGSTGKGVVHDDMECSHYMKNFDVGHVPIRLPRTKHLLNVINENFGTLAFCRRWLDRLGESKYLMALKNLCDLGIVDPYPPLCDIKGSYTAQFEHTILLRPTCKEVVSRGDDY
Assay: MetAP2 enzyme assay, enzyme complexed with cobalt ions
Conditions: MetAP2 Co pIC50, MetAP2 enzyme complexed with cobalt ions; Met-AMC substrate at Km
pIC50: −log10 of the molar value.
experimental-readout: pIC50

O=C(O)Cn1cc(-c2cc(C(F)(F)F)cc3[nH]ncc23)cn1 | 6.00
Cn1ncc(-c2cc(C(F)(F)F)cc3[nH]ncc23)c1N | 6.00
CS(=O)(=O)c1cncc(-c2cc(C(F)(F)F)cc3[nH]ncc23)c1 | 6.50
Cn1cc(-c2cc(C(F)(F)F)cc3[nH]ncc23)c(=O)n(CC#N)c1=O | 6.00
CCn1cc(-c2cc(C(F)(F)F)cc3[nH]ncc23)c(C)n1 | 7.20
CCNC(=O)c1cccc(-c2cc(C(F)(F)F)cc3[nH]ncc23)c1 | 7.10
CN1CCN(C(=O)c2cc(-c3cc(C(F)(F)F)cc4[nH]ncc34)cnc2F)CC1 | 7.00
O=C1Cc2ccc(-c3cc(C(F)(F)F)cc4[nH]ncc34)cc2N1 | 7.80
N#Cc1cccc(-c2cc(C(F)(F)F)cc3[nH]ncc23)c1 | 7.00
Cc1nn(CC(N)=O)cc1-c1cc(C(F)(F)F)cc2[nH]ncc12 | 7.20
O=C(NCCO)c1ccc(-c2cc(C(F)(F)F)cc3[nH]ncc23)c(Cl)c1 | 7.80
COc1cccc(-c2cc(C(F)(F)F)cc3[nH]ncc23)c1OC | 6.90
COc1ccncc1-c1cc(C(F)(F)F)cc2[nH]ncc12 | 7.10
Nc1ccc(-c2cc(C(F)(F)F)cc3[nH]ncc23)cn1 | 7.50
O=C(NCCO)c1ccc(-c2cc(C(F)(F)F)cc3[nH]ncc23)cc1F | 7.30
O=C(NCC(F)F)c1c[nH]c(=O)c(-c2cc(C(F)(F)F)cc3[nH]ncc23)c1 | 6.40
Cc1nn(C[C@@H]2CCC(=O)N2)c(C)c1-c1cc(C(F)(F)F)cc2[nH]ncc12 | 7.10
O=c1[nH]c2cc(-c3cc(C(F)(F)F)cc4[nH]ncc34)cnc2[nH]1 | 7.80
FC(F)(F)c1cc(-c2cccc3cccnc23)c2cn[nH]c2c1 | 6.70
N#Cc1ccccc1-c1cc(C(F)(F)F)cc2[nH]ncc12 | 6.90
CS(=O)(=O)c1ccc(-c2cc(C(F)(F)F)cc3[nH]ncc23)cc1 | 7.20
NS(=O)(=O)c1cc(F)c(-c2cc(C(F)(F)F)cc3[nH]ncc23)cc1F | 7.30
NC(=O)Cn1cc(-c2cc(C(F)(F)F)cc3[nH]ncc23)cn1 | 7.00
Nc1ncc(-c2cc(C(F)(F)F)cc3[nH]ncc23)cn1 | 7.30
Cn1cnc2ccc(-c3cc(C(F)(F)F)cc4[nH]ncc34)cc21 | 7.50
FC(F)(F)c1cc(-c2csc(N3CCOCC3)n2)c2cn[nH]c2c1 | 6.00
Cc1c(C(=O)NCCO)cc(-c2cc(C(F)(F)F)cc3[nH]ncc23)c(=O)n1C | 6.60
CN(C)C(=O)c1c[nH]c(=O)c(-c2cc(C(F)(F)F)cc3[nH]ncc23)c1 | 6.10

Hello, the source for this data is patent US9434743B2, in case you need it.
